Answer each item with its documented protein stability index.
B1: IQUB (parent)
chain: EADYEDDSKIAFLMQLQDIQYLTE

Variants of: B1
test.name: protein stability index of a GFP-peptide fusion (GPS, HEK-293T) (PSI 1-6); higher = more stable;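 further: lentivirally expressed fusions sorted by FACS into six bins by GFP to DsRed ratio, PSI derived from sequencing read proportions per bin multiplied by bin number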
condition.set: c terminus: a fixed tail appended
Give bare numbers.

| mutation.name | protein stability index |
| --- | --- |
| S8N | 3.53 |
| E1N | 2.85 |
| K9R | 2.89 |
| Q17F | 2.68 |

# map each variant to its protein stability index
1. D3H
2. A11C
3. Q17R
4. Q15A
5. L16E

result:
[2.17, 2.54, 2.57, 2.61, 3.96]

The following variants each have a reported value; give each one's protein stability index.
1. E1V
2. A11E

result:
1.74
3.39
